Below, each of the variants is paired with its reported normalized RNA/DNA level with ligand (log10) value.
B1: library; a variant is named by its letters at N, in order (parent)
chain: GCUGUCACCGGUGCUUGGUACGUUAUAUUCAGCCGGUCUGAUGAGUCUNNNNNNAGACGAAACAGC

Variants of: B1
Test details: normalized RNA/DNA level with ligand (relative to sTRSVctl = 100) (log10 (% of sTRSVctl)); HEK293T overexpressing SLC46A1; ligand concentration (+) RNA-Seq: 6 mM; higher = less ribozyme self-cleavage, higher mRNA level
Study conditions: with (6R,S)-folinic acid; ligand present: yes
# output: bare number, no unit

Consider the reported normalized RNA/DNA level with ligand (log10) for these variants:
mutations=CACGCG observed_result=2
mutations=UGCGUG observed_result=1.95
mutations=ACCUAA observed_result=1.99
mutations=GAGCGC observed_result=2.03
mutations=AUUCAA observed_result=2.01
mutations=CAUGUU observed_result=2.04

Suppose we examine the variant UACUAC ; what normalized RNA/DNA level with ligand (log10) value has been reported?
2.01
